- assay.text: In-vivo metabolism (pharmacokinetic) study in rats, oral / tail intravenous
- test.context: rat; Oral, 10 mg/kg, male SD rats, plasma
Cut-off 10000 ng·h/mL on AUC(0-t), inclusive. At or above means T; below means F.

[
  {
    "compound": "C[C@@H](O)[C@H](N)C(=O)N1CC2(C1)NCCS2.Cl [A-006]",
    "label.class": "T"
  },
  {
    "compound": "C[C@@H](O)[C@H](N)C(=O)N1CCC2(CC1)N[C@H](C(N)=O)CS2.Cl [A-274]",
    "label.class": "F"
  }
]

stdin: Textbook exercise: given the entry CC(C)[C@H](N)C(=O)N1CC2(C1)N[C@H](C(N)=O)CS2.Cl [A-260] , state whether its AUC(0-t) is greater than or equal to 10000 ng·h/mL.
stdout: T

stdin: Textbook exercise: given the entry CC(=O)N1CCSC12CN(C(=O)[C@@H](N)[C@@H](C)O)C2.Cl [A-066] , state whether its AUC(0-t) is greater than or equal to 10000 ng·h/mL.
stdout: F

stdin: Textbook exercise: given the entry C[C@@H](O)[C@H](N)C(=O)N1CC2(C1)N[C@H](C(N)=O)CS2.Cl [A-258] , state whether its AUC(0-t) is greater than or equal to 10000 ng·h/mL.
stdout: T

stdin: Textbook exercise: given the entry CC(=O)N1CCSC12CCN(C(=O)[C@@H](N)[C@@H](C)O)CC2.Cl [A-082] , state whether its AUC(0-t) is greater than or equal to 10000 ng·h/mL.
stdout: T

stdin: Textbook exercise: given the entry CC(C)C(=O)N1CCSC12CN(C(=O)[C@@H](N)[C@@H](C)O)C2.Cl [A-098] , state whether its AUC(0-t) is greater than or equal to 10000 ng·h/mL.
stdout: F
